molecular target: T1, recombinant human VEGF165 (human, UniProt P15692-4 27-191); experiment: competition ELISA: VEGF165 binding to coated VEGFR2/Fc; normalized value
T1 construct: also called rhVEGF165
T1 sequence (P15692 other isoform, or with tags, fused parts or gaps limits assumed): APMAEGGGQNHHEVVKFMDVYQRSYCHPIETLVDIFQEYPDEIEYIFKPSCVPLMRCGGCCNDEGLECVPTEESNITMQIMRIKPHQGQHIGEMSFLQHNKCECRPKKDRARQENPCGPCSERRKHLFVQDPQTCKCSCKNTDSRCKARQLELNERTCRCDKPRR
Bridges are numbered along the chain shown (N, C = ends).
Measured metric: pIC50
// pIC50 is dimensionless: -log10 of concentration (M)

For record Ac-VEPNCDIHVMWEWECFERL-NH2 (disulfide 5-15 (inferred)) [[VEGF-Peptide] SEQ ID NO:34] the listed pIC50 is 6.73

Entry source: patent US20120321591A1
